Tested on: SNB-19
procedure_text: NCI tumour cell line growth inhibition, 48 h
Calls of active or inactive are those of the source. No stated cut-off is given here; in the data, active = GI50 up to about 1.1 µM and inactive = higher.
test_readout: GI50

Below, 3 molecules whose answers are already recorded.
- molecule: "Cn1c(=O)c2nc(COCc3nc4c(=O)n(C)c(=O)n(C)c4[nH]3)[nH]c2n(C)c1=O"
  GI50: "> 100 µM (inactive)"
- molecule: "CCOC(=O)CC1=CSC2=NCCN12"
  GI50: "> 100 µM (inactive)"
- molecule: "CCOc1cccc2sc(N)nc12"
  GI50: "> 100 µM (inactive)"

Record request: GI50 value, item C=C(C)C1CC=C(C(=O)O)CC1 (configuration not stated)
1190 µM (inactive)

Entry under review: `COC(=O)[C@@H]1C[C@@H](O)CN1C(=O)c1ccc([N+](=O)[O-])cc1[N+](=O)[O-]` . Reported GI50?
> 100 µM (inactive)

// lookup GI50 for `Cn1c(=O)n2n(c1=O)[C@@H](c1ccccc1)[C@H]2c1ccccc1`
> 100 µM (inactive)

// query GI50 value for entry `Cc1cc(S(=O)(=O)/N=C(\NN)NCC(=O)NN)c(S)cc1Cl`
> 10 µM (inactive)

What does the data say about its GI50? Entry: Nc1ncnc2c1ncn2C1OC(CO)=CC1O (configuration not stated)
> 37.5 µM (inactive)

Find the recorded GI50 belonging to `Cc1ccc(C(=O)/C=C2\Nc3ccccc3N=C2NC23CC4CC(CC(C4)C2)C3)cc1` and report it.
> 10 µM (inactive)

Query (molecule): NC1=NN(c2ccccc2)C(=O)C1C(=O)CCC(=O)Nc1cccc(Cl)c1 (configuration not stated) ; field requested: GI50
> 100 µM (inactive)

Quick one: GI50 of `O=c1c2cc(I)ccc2nc(S)n1Cc1ccccc1` ?
18.9 µM (inactive)

Name the reported GI50 value associated with the molecule NC(=O)C(=O)N/N=C1\C(=O)N(c2ccc(Cl)cc2Cl)C(=O)C1C(=O)Nc1ccc(Cl)cc1Cl (configuration not stated)
> 100 µM (inactive)

Data request, read-out GI50, for `Cc1ccc(S(=O)(=O)N2CCc3cc(O)c([N+](=O)[O-])cc32)cc1`
> 100 µM (inactive)

Reported GI50, molecule CCCC(=O)OCC1OC(n2cc(F)c(=O)[nH]c2=O)CC1O (configuration not stated) : ____
> 10 µM (inactive)

For CC(=O)OCC1OC(N2C(=O)C(=O)c3ccccc32)C(OC(C)=O)C(OC(C)=O)C1OC(C)=O (configuration not stated) , what is its reported GI50?
> 100 µM (inactive)

Reported GI50 for COc1cc(/C=c2\sc3n(c2=O)C(c2ccc(Cl)cc2)C2=C(CCCC2C)N=3)cc(OC)c1OC (configuration not stated) : what is it?
> 100 µM (inactive)

Would you kindly share the measured GI50 for `COc1ccc2c(c1OC)OC[C@@H](C1=CC(=O)C=C(O)C1=O)C2` ?
16 µM (inactive)

// query GI50 value for entry `CC[C@H]1[C@@H](C)C=C[C@@H](C)N1S(=O)(=O)c1ccc(C)cc1`
0.693 µM (active)

What measured GI50 goes with Nc1nc(Cl)cc(NCC2(CO)CCC(CCc3ccccc3)C2)n1 (configuration not stated) ?
15.9 µM (inactive)
